Catalogue of No. of resistant isolates values
- System: A. baumannii isolates
- test_description: MICs (minimum inhibitory concentrations) for susceptibility to known antibiotics, British Society for Antimicrobial Chemotherapy guidelines
- Type: cell-based, Acinetobacter baumannii
- condition_description: 20 clinical isolates from diabetic patients

Examples with answers:
record_smiles=CO[C@H]1/C=C/O[C@@]2(C)Oc3c(C)c(O)c4c(O)c(c(/C=N/N5CCN(C)CC5)c(O)c4c3C2=O)NC(=O)/C(C)=C\C=C\[C@H](C)[C@H](O)[C@@H](C)[C@@H](O)[C@@H](C)[C@H](OC(C)=O)[C@@H]1C readout_value=16
record_smiles=O=C(N[C@H](CO)[C@H](O)c1ccc([N+](=O)[O-])cc1)C(Cl)Cl readout_value=20

# input for lookup
Incoming: Entry C[C@@H](O)[C@H]1C(=O)N2C(C(=O)O)=C(S[C@@H]3CN[C@H](C(=O)N(C)C)C3)[C@H](C)[C@H]12 : reported No. of resistant isolates = ?
Outgoing: 4

* * *

- Tested on: A. baumannii isolates
- test_description: MICs (minimum inhibitory concentrations) for susceptibility to known antibiotics, British Society for Antimicrobial Chemotherapy guidelines
- Type: cell-based, Acinetobacter baumannii
- condition_description: 20 clinical isolates from diabetic patients
assay_endpoint: No. of resistant isolates
Lab note: jot the number down without any unit.

record_smiles=CN(C)[C@@H]1C(O)=C(C(N)=O)C(=O)[C@@]2(O)C(O)=C3C(=O)c4c(O)cccc4[C@@](C)(O)[C@H]3C[C@@H]12 readout_value=20
record_smiles=C[C@@H](O)[C@H]1C(=O)N2C(C(=O)O)=C(SCCN=CN)C[C@H]12 readout_value=0
record_smiles=CC1(C)S[C@@H]2[C@H](NC(=O)[C@H](N)c3ccccc3)C(=O)N2[C@H]1C(=O)O readout_value=20

# input for lookup
Incoming: Entry CC1(C)[C@H](C(=O)O)N2C(=O)C[C@H]2S1(=O)=O : reported No. of resistant isolates = ?
Outgoing: 20

* * *

- Test system: A. baumannii isolates
- test_description: MICs (minimum inhibitory concentrations) for susceptibility to known antibiotics, British Society for Antimicrobial Chemotherapy guidelines
- Format: cell-based, Acinetobacter baumannii
- condition_description: 20 clinical isolates from diabetic patients
assay_endpoint: susceptibility/resistance of the isolates in words

Examples with answers:
compound="Cc1onc(-c2ccccc2)c1C(=O)N[C@@H]1C(=O)N2[C@@H]1SC(C)(C)[C@@H]2C(=O)O [Oxacillin]" readout_value="highly resistant"
compound="C[C@@H](O)[C@H]1C(=O)N2C(C(=O)O)=C(S[C@@H]3CN[C@H](C(=O)Nc4cccc(C(=O)O)c4)C3)[C@H](C)[C@H]12 [Ertapenem]" readout_value="highly resistant"
compound="CC1(C)S[C@@H]2[C@H](NC(=O)[C@H](N)c3ccccc3)C(=O)N2[C@H]1C(=O)O [Ampicillin]" readout_value="highly resistant"
compound="CC1(C)[C@H](C(=O)O)N2C(=O)C[C@H]2S1(=O)=O [Sulbactam]" readout_value="highly resistant"

# input for lookup
Incoming: Entry O=C(N[C@H](CO)[C@H](O)c1ccc([N+](=O)[O-])cc1)C(Cl)Cl [Chloramphenicol] : reported susceptibility/resistance of the isolates in words = ?
Outgoing: highly resistant

* * *

Catalogue of No. of resistant isolates values
- Tested on: A. baumannii isolates
- test_description: MICs (minimum inhibitory concentrations) for susceptibility to known antibiotics, British Society for Antimicrobial Chemotherapy guidelines
- Type: cell-based, Acinetobacter baumannii
- condition_description: 20 clinical isolates from diabetic patients
- Source text: All twenty isolates were further tested for MICs (minimum inhibitory concentrations) for susceptibility to several known antibiotics using the British Society for Antimicrobial Chemotherapy guidelines.
Lab note: jot the number down without any unit.

Examples with answers:
compound=C[C@@H](O)[C@H]1C(=O)N2C(C(=O)O)=C(S[C@@H]3CN[C@H](C(=O)Nc4cccc(C(=O)O)c4)C3)[C@H](C)[C@H]12 readout_value=20
compound=CCn1cc(C(=O)O)c(=O)c2ccc(C)nc21 readout_value=15
compound=Cc1onc(-c2ccccc2)c1C(=O)N[C@@H]1C(=O)N2[C@@H]1SC(C)(C)[C@@H]2C(=O)O readout_value=20

Incoming: What No. of resistant isolates appears in the records for this compound with A. baumannii isolates? CC1COc2c(N3CCN(C)CC3)c(F)cc3c(=O)c(C(=O)O)cn1c23 (stereo not shown)
Outgoing: 14
